biological target: Human immunodeficiency virus type 1 protease (Human immunodeficiency virus 1); assay: Inhibitory concentration against HIV-1 protease in the absence of DMSO
property_measured: pIC50
One number for each entry, as −log10 of the molar value.

Can you look up the measured pIC50 of CC1=C(CCC(=O)O)c2cc3[nH]c(cc4[nH]c(cc5nc(cc1n2)C(C)=C5C(COC(=O)C1=CCC1)OC(=O)C1=CCC1)c(C)c4C(COC(=O)C1=CCC1)OC(=O)C1=CCC1)c(C)c3CCC(=O)O (stereo unspecified) for me?
6.05

###

target: Human immunodeficiency virus type 1 protease (Human immunodeficiency virus 1, UniProt Q72874); assay: Inhibition of HIV-1 protease in 10% fetal calf serum(FCS)
Exercise: state measured IC50 for each of the molecules provided.

C=CC1=C(C)c2cc3[nH]c(cc4nc(cc5[nH]c(cc1n2)c(C)c5CCC(=O)O)C(CCC(=O)O)=C4C)c(C)c3C=C; > 200 µM

Working through the 7 molecules below one at a time, give IC50 for each.
1. CC1=C(C(O)CO)c2cc3nc(cc4[nH]c(cc5[nH]c(cc1n2)c(C)c5CCC(=O)O)c(CCC(=O)O)c4C)C(C(O)CO)=C3C (stereo not drawn)
2. CC1=C(C(COC(=O)c2ccc3ccccc3c2)OC(=O)c2ccc3ccccc3c2)c2cc3nc(cc4[nH]c(cc5[nH]c(cc1n2)c(C)c5CCC(=O)O)c(CCC(=O)O)c4C)C(C(COC(=O)c1ccc2ccccc2c1)OC(=O)c1ccc2ccccc2c1)=C3C (stereo not drawn)
3. CC1=C(C(COC(=O)c2ccc(N(C)C)cc2)OC(=O)c2ccc(N(C)C)cc2)c2cc3nc(cc4[nH]c(cc5[nH]c(cc1n2)c(C)c5CCC(=O)O)c(CCC(=O)O)c4C)C(C(COC(=O)c1ccc(N(C)C)cc1)OC(=O)c1ccc(N(C)C)cc1)=C3C (stereo not drawn)
4. CC[C@H](C)[C@H](NC(=O)[C@H](C(C)C)[C@@H](O)[C@H](O)[C@H](CC1CCCCC1)NC(=O)[C@H](Cc1c[nH]cn1)NC(=O)COc1cccc2ccccc12)C(=O)NCc1ccccn1
5. CC1=C(CCC(=O)O)c2cc3[nH]c(cc4[nH]c(cc5nc(cc1n2)C(C)=C5C(COC(=O)C1=CCC1)OC(=O)C1=CCC1)c(C)c4C(COC(=O)C1=CCC1)OC(=O)C1=CCC1)c(C)c3CCC(=O)O (stereo not drawn)
6. CC1=C(CCC(=O)O)c2cc3[nH]c(cc4[nH]c(cc5nc(cc1n2)C(C)=C5C(COC(=O)C1=CC1)OC(=O)C1=CC1)c(C)c4C(COC(=O)C1=CC1)OC(=O)C1=CC1)c(C)c3CCC(=O)O (stereo in doubt)
7. CC1=C(C(COC(=O)c2ccccc2)OC(=O)c2ccccc2)c2cc3nc(cc4[nH]c(cc5[nH]c(cc1n2)c(C)c5CCC(=O)O)c(CCC(=O)O)c4C)C(C(COC(=O)c1ccccc1)OC(=O)c1ccccc1)=C3C (stereo not drawn)

["> 200 µM", "> 150 µM", "75 µM", "0.75 µM", "10 µM", "> 150 µM", "> 100 µM"]

###

biological target: Human immunodeficiency virus type 1 protease (Human immunodeficiency virus 1, UniProt Q72874); test: Inhibition of HIV-1 protease in 5%DMSO
pIC50: −log10 of the molar value.
pIC50 vs 5: at or above is 1 (yes), below is 0 (no).

CC1=C(C(O)CO)c2cc3nc(cc4[nH]c(cc5[nH]c(cc1n2)c(C)c5CCC(=O)O)c(CCC(=O)O)c4C)C(C(O)CO)=C3C (centres undefined); 0 (no)
CC1=C(C(COC(=O)c2ccccc2)OC(=O)c2ccccc2)c2cc3nc(cc4[nH]c(cc5[nH]c(cc1n2)c(C)c5CCC(=O)O)c(CCC(=O)O)c4C)C(C(COC(=O)c1ccccc1)OC(=O)c1ccccc1)=C3C (centres undefined); 0 (no)
CC1=C(C(COC(=O)c2ccc3ccccc3c2)OC(=O)c2ccc3ccccc3c2)c2cc3nc(cc4[nH]c(cc5[nH]c(cc1n2)c(C)c5CCC(=O)O)c(CCC(=O)O)c4C)C(C(COC(=O)c1ccc2ccccc2c1)OC(=O)c1ccc2ccccc2c1)=C3C (centres undefined); 0 (no)
C=CC1=C(C)c2cc3[nH]c(cc4nc(cc5[nH]c(cc1n2)c(C)c5CCC(=O)O)C(CCC(=O)O)=C4C)c(C)c3C=C; 0 (no)

From here, focus on the item given below.
Given the entry CC1=C(C(COC(=O)C23C[C@H]4C[C@@H](C2)C[C@@H](C3)C4)OC(=O)C23C[C@H]4C[C@@H](C2)C[C@@H](C3)C4)c2cc3nc(cc4[nH]c(cc5[nH]c(cc1n2)c(C)c5CCC(=O)O)c(CCC(=O)O)c4C)C(C(COC(=O)C12C[C@H]4C[C@@H](C1)C[C@@H](C2)C4)OC(=O)C12C[C@H]4C[C@@H](C1)C[C@@H](C2)C4)=C3C (some centres undefined) , answer whether its pIC50 meets or surpasses 5.
1 (yes)
